Here, each record is paired with measured % Inhibition data.
test system: P. falciparum stage V gametocytes; design: BacTiter-Glo ATP luminescence viability of purified stage V gametocytes in 384-well plates, per cent inhibition versus DMSO; details: 48 h, 5 µM; inhibitor
About 3,200 (25%) of roughly 13,000 compounds showed an effect of 50% or more. The list shows a part of the results.

{"molecule": "CC1CN(c2cc(=O)n(Cc3cccc(NC(=O)Nc4ccc(-c5ccccc5)cc4)c3)cn2)CC(C)N1 (stereo not shown)", "% Inhibition / %": -7.987}
{"molecule": "Nc1ccc(-c2cnc3[nH]cc(-c4ccc(C(=O)O)cc4)c3c2)cn1", "% Inhibition / %": 1.916}
{"molecule": "COc1ccc(-c2c(-c3ccc(OCc4ccccc4)cc3O)n[nH]c2C(F)(F)F)cc1", "% Inhibition / %": -11.85}
{"molecule": "CCc1cc(-c2n[nH]c(C(F)(F)F)c2-c2ccccc2)c(O)cc1OC", "% Inhibition / %": 70.95}

// provenance: paper PMC4552634
